# System: LOC_OS05G43570-cb004
# EXPERIMENTAL_DETAILS: thermal shift delta Tm vs DMSO control; higher = stronger stabilization (binding);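 also: purified Escherichia coli-expressed rice kinase domain construct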
# CONDITIONS_USED: 12.5 µM; protein concentration 2 µM
Counter-ions that a name gives are not always drawn.
Would you mind labelling by thermal shift delta Tm? At or over 0.2 °C is Fulfilled, under is Not fulfilled.

* Fc1ccc2[nH]ccc2c1-c1nc(N2CCOCC2)c2sc(CN3CCN(CC4CC4)CC3)cc2n1 | Not fulfilled
* Cc1ccc(NC(=O)c2ccc(CN3CCN(C)CC3)cc2)cc1Nc1nccc(-c2cccnc2)n1 [Imatinib Mesylate (STI571)] | Fulfilled
* COc1cc(OC)cc(N(CCNC(C)C)c2ccc3ncc(-c4cnn(C)c4)nc3c2)c1 | Not fulfilled
* Cc1[nH]nc2ccc(-c3cncc(OC[C@@H](N)Cc4ccccc4)c3)cc12 | Fulfilled
* Cc1ccc(F)c(NC(=O)Nc2ccc(-c3cccc4[nH]nc(N)c34)cc2)c1 | Fulfilled

Query: Decide: is the reported value of thermal shift delta Tm for c1cc(-c2cnn3cc(-c4ccc(OCCN5CCCCC5)cc4)cnc23)ccn1 [Dorsomorphin 2HCl] equal to or greater than 0.2 °C?
Result: Fulfilled

Query: Subsequent entry: COc1cccc(-n2c(=O)[nH]c3cc(Cl)n(-c4ccc(-c5cccc(OC)c5O)cc4)c3c2=O)c1
Result: Fulfilled

---

# System: LOC_OS07G07230-cb001
# EXPERIMENTAL_DETAILS: thermal shift delta Tm vs DMSO control; higher = stronger stabilization (binding)
# CONDITIONS_USED: 12.5 µM; protein concentration 2 µM
Would you mind labelling by thermal shift delta Tm? At or over 0.5 °C is Condition met, under is Condition not met.

* CO[C@H]1C[C@@H]2CC[C@@H](C)[C@@](O)(O2)C(=O)C(=O)N2CCCC[C@H]2C(=O)O[C@H]([C@H](C)C[C@@H]2CC[C@@H](OP(C)(C)=O)[C@H](OC)C2)CC(=O)[C@H](C)/C=C(\C)[C@@H](O)[C@@H](OC)C(=O)[C@H](C)C[C@H](C)/C=C/C=C/C=C/1C [Ridaforolimus (Deforolimus, MK-8669)] | Condition not met
* O=C1NC(=O)C(c2ccccc2[N+](=O)[O-])=C1Nc1ccc(O)c(Cl)c1 | Condition not met
* COc1cc2ncnc(Oc3ccc(CC(=O)Nc4cnn(C(C)C)c4)cc3)c2cc1OC | Condition not met
* CN(C)CCCn1cc(C2=C(c3c[nH]c4ccccc34)C(=O)NC2=O)c2ccccc21 | Condition met
* COc1ccc(Cl)cc1NC(=O)Nc1cc(C)nc2ccccc12 | Condition met

Query: Decide: is the reported value of thermal shift delta Tm for CNC(=O)c1cc(Oc2ccc(NC(=O)Nc3ccc(Cl)c(C(F)(F)F)c3)cc2)ccn1 [Sorafenib] equal to or greater than 0.5 °C?
Result: Condition not met

Query: Subsequent entry: CC1Oc2cc(cnc2N)-c2c(nn(C)c2C#N)CN(C)C(=O)c2ccc(F)cc21 (configuration not stated)
Result: Condition met

---

# Tested on: LOC_OS02G45750-cb003
# EXPERIMENTAL_DETAILS: thermal shift delta Tm vs DMSO control; higher = stronger stabilization (binding)
# CONDITIONS_USED: 12.5 µM; protein concentration 2 µM
Some compounds, each annotated with its measured thermal shift delta Tm.
A number alone suffices; assume °C.

* O=C1NC(=O)/C(=C/c2ccc(-c3ccc(F)cc3O)o2)S1 | 2.33
* C[C@H](CN(C)C)Oc1nc(Nc2cc3cccc(Cl)c3cn2)cnc1C#N | 2.56
* O=C(O)c1ccc2c(c1)nc(Nc1cccc(Cl)c1)c1ccncc12 [Silmitasertib (CX-4945)] | 1.82
* Cc1c[nH]c(/C=C2\C(=O)Nc3ccccc32)c1CCC(=O)O | 2.76
* CC(C)(C)c1ccc(S(=O)(=O)/C=C/C#N)cc1 | -0.34

Query: Recorded thermal shift delta Tm for CCCCCCCCCCCCCCCCOP(=O)([O-])OCC[N+](C)(C)C [Miltefosine] , please?
Result: -1.69

Query: Subsequent entry: CCCCCCCCCCCCCCCCCCOP(=O)([O-])OC1CC[N+](C)(C)CC1 [Perifosine (KRX-0401)]
Result: -1.3

Query: Subsequent entry: Nc1nc2cc(-c3ccc4ncc(C(=O)N5CCOCC5)n4c3)ccc2o1 [Serabelisib (INK-1117,MLN-1117,TAK-117)]
Result: 1.65

Query: Subsequent entry: COC(=O)[C@]12CCC(C)(C)C[C@H]1[C@H]1C(=O)C=C3[C@@]4(C)C=C(C#N)C(=O)C(C)(C)[C@@H]4CC[C@@]3(C)[C@]1(C)CC2 [Bardoxolone Methyl]
Result: 0.78

Query: Subsequent entry: C#Cc1cccc(Nc2ncnc3cc(OCCOC)c(OCCO)cc23)c1
Result: 3.92

Query: Subsequent entry: Nc1cccc(-c2cc3c(Oc4cccc(O)c4)ncnc3[nH]2)c1
Result: 5.52

Query: Subsequent entry: O=C(Nc1ccccc1C(=O)NC1CCCCNC1=O)c1cc2ccccc2s1 (stereo unspecified)
Result: 0.67

Query: Subsequent entry: O=C(NCc1ccccc1)c1csc(Nc2ccncn2)n1 [Thiazovivin]
Result: 0.91

Query: Subsequent entry: O=C(O)c1cc(O)c2c(c1)[C@@H]([C@H]1c3cc(C(=O)O)cc(O)c3C(=O)c3c(O[C@@H]4O[C@H](CO)[C@@H](O)[C@H](O)[C@H]4O)cccc31)c1cccc(O[C@@H]3O[C@H](CO)[C@@H](O)[C@H](O)[C@H]3O)c1C2=O [Sennoside B]
Result: 0.1

Query: Subsequent entry: CCS(=O)(=O)N1CC(CC#N)(n2cc(-c3ncnc4[nH]ccc34)cn2)C1
Result: 2.13

Query: Subsequent entry: COc1ccc(CC(=O)Nc2nc3c(s2)CCc2ccccc2-3)cc1OC
Result: 1.49

Query: Subsequent entry: CC[C@@H](N)CNc1ccnc(-c2cc(-c3cnn(C)c3)ccc2O)n1
Result: 2.91

Query: Subsequent entry: C[C@@H](N)c1ccc(C(=O)Nc2ccnc3[nH]ccc23)cc1
Result: 1.52

Query: Subsequent entry: NC[C@@](O)(c1ccc(Cl)cc1)c1ccc(-c2cn[nH]c2)cc1
Result: 1.24

Query: Subsequent entry: C=CC(=O)Nc1cccc(Sc2nc(Nc3ccc(N4CCN(C)CC4)cc3)ncc2Cl)c1
Result: 1.15

Query: Subsequent entry: CC(C)N(CCC(=O)c1ccc2ccccc2c1)Cc1ccccc1
Result: -0.52

Query: Subsequent entry: N#CC1(c2ccc(NC(=O)c3cccnc3NCc3ccncc3)cc2)CCCC1 [Apatinib]
Result: 0.45

Query: Subsequent entry: Cn1ncc(Cl)c1-c1cc(C(=O)N[C@H](CN)Cc2cccc(F)c2)sc1Cl
Result: 0.37

Query: Subsequent entry: CCn1c(=O)c(-c2cc[nH]n2)cc2c(C)nc(N)nc21
Result: 0.15

---

# Tested on: LOC_OS04G35114-cb001
# EXPERIMENTAL_DETAILS: thermal shift delta Tm vs DMSO control; higher = stronger stabilization (binding)
# CONDITIONS_USED: 12.5 µM; protein concentration 2 µM
The recorded thermal shift delta Tm of each item maps onto one of these classes: bottom range: < 0.5 °C; center range: ≥ 0.5 °C and < 2 °C; top range: ≥ 2 °C

- N[C@@H]1CCCN(c2c(/C=C3\SC(=O)NC3=O)cccc2-c2ccccc2)C1: center range
- c1nc2c(NC3CCCCC3)nc(Nc3ccc(N4CCOCC4)cc3)nc2[nH]1 [Reversine]: top range
- CNC(=O)Nc1ccc(-c2nc(N3CC4CCC(C3)O4)c3cnn(C4CCC5(CC4)OCCO5)c3n2)cc1: bottom range
- CC#CC(=O)N1CCC[C@H]1c1nc(-c2ccc(C(=O)Nc3ccccn3)cc2)c2c(N)nccn12 [Acalabrutinib (ACP-196)]: center range
- CN1CCN(S(=O)(=O)c2ccc(-c3cnc(N)c(C(=O)Nc4cccnc4)n3)cc2)CC1: top range
- Cc1ccccc1CN1C2=NCCN2C(=O)C2=C1CCN(Cc1ccccc1)C2 [TIC10 Analogue]: center range
- Cn1ncc(Cl)c1-c1cc(C(=O)N[C@H](CN)Cc2ccc(F)c(F)c2)oc1Cl: center range
- CN(C)S(=O)(=O)c1ccc2c(c1)/C(=C/c1cc3c([nH]1)CCCC3)C(=O)N2: bottom range
- N#Cc1ccc2[nH]c(O)c(-c3ccc(CN4CCOCC4)cn3)c2c1: center range
- CCn1c(-c2nonc2N)nc2c(C#CC(C)(C)O)ncc(OC[C@H]3CCCNC3)c21: bottom range

Could you now look at the following molecule, please?
Query: Category of CCn1c(C(=O)N(C2CC2)C2CC2)cc2c3c(ncn3C)c(Nc3cc(C)n(C)n3)nc21 , please.
Result: top range

---

# Test system: LOC_OS05G07850-cb002
# EXPERIMENTAL_DETAILS: thermal shift delta Tm vs DMSO control; higher = stronger stabilization (binding)
# CONDITIONS_USED: 12.5 µM; protein concentration 2 µM
ATTRIBUTE_MEASURED: thermal shift delta Tm (°C)
A number alone suffices; assume °C.

Worked set:
• Cn1cnc(N)c2ncnc1-2 = 0.75
• COC(=O)N[C@@H](C)CNc1nccc(-c2cn(C(C)C)nc2-c2cc(Cl)cc(NS(C)(=O)=O)c2F)n1 = 5.07
• CN1CCN(c2ccc(Nc3cc(-c4cccc(-n5ccc6cc(C7CC7)cc(F)c6c5=O)c4CO)cn(C)c3=O)nc2)CC1 = 2.96
• Cc1ccc(NC(=O)c2ccc(CN3CC[C@H](N(C)C)C3)c(C(F)(F)F)c2)cc1Nc1nccc(-c2cncnc2)n1 = 0.37
• CCN(CC)CCCCNc1ncc2cc(-c3cc(OC)cc(OC)c3)c(NC(=O)NC(C)(C)C)nc2n1 = -0.15
• Cc1[nH]c(/C=C2\C(=O)Nc3ccccc32)c(C)c1CCC(=O)O [Orantinib (TSU-68, SU6668)] = 9.92

Query: Recorded thermal shift delta Tm for NC[C@@](O)(c1ccc(Cl)cc1)c1ccc(-c2cn[nH]c2)cc1 , please?
Result: 1.75

Query: Subsequent entry: COc1cc(Nc2ncc(F)c(Nc3ccc4c(n3)NC(=O)C(C)(C)O4)n2)cc(OC)c1OC [R406 (free base)]
Result: 13

Query: Subsequent entry: CCc1nc(-c2cccc(C)c2)c(-c2ccnc(NC(=O)c3ccccc3)c2)s1
Result: 4.1

Query: Subsequent entry: C=CCc1ccc(O)c(-c2ccc(O)c(CC=C)c2)c1
Result: 0.49

Query: Subsequent entry: Cn1cc(-c2ccc3nnc(Sc4ccc5ncccc5c4)n3n2)cn1
Result: 0.32

Query: Subsequent entry: Cn1cc(C2=C(c3ccc(Cl)cc3Cl)C(=O)NC2=O)c2ccccc21
Result: 2.36

Query: Subsequent entry: Oc1cc(O)cc(/C=C/c2ccc(O)c(O)c2)c1
Result: 2.79

Query: Subsequent entry: CCCNC(=O)Nc1ccc(Oc2ncnc3cc(OC)c(OC)cc23)cc1Cl
Result: 5.45
